meta.source: PubChem BioAssay

# target.system: Alpha-bungarotoxin (Bungarus multicinctus) (UniProt P60615)
# Sequence (P60615 whole entry, looked up): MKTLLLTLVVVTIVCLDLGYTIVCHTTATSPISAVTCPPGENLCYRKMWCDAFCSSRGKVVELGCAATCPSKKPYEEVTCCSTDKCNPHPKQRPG
# experiment.summary: alpha-bungarotoxin binders on microarray, profiling panel, artefact control for SMM control protein annotation, biochemical, small-molecule microarray, Alexa647 label, 635/667 nm fluorescence (AID 1117)
# measurement.setup: alpha-BTX-A647 binding fluorescence, higher = more signal
value.kind: composite z-score
Give the figure only, with no unit attached.

query: Which measured composite z-score value corresponds to COc1ccc([Si](C)(C)[C@H]2[C@H](CC(=O)N(CCO)Cc3ccccc3)O[C@@]3(C(=O)N(Cc4ccc(N5CCOC5=O)cc4)c4ccccc43)[C@@H]2C)cc1 ?
result: 1.02

query: Looking for the measured composite z-score of COC(=O)[C@@]1(CCC(=O)OC(C)(C)C)COC(c2ccc(OCCCO)cc2)=N1 , can you help?
result: -0.741

query: Given the compound CN1C=C(C(=O)OCCS(C)(=O)=O)C(C(=O)OCCS(C)(=O)=O)=CC(CCCO)=CC1c1cccs1 (configuration not stated) , what is its reported composite z-score?
result: -0.515

query: Consider the compound CCCCCN1CC=CC23O[C@@H]4/C=C\CCC(C)OC(=O)C4[C@H]2C(=O)N(CCO)[C@@H]3C1=O (some centres not stated) and give its measured composite z-score.
result: -1.7

query: Which composite z-score is reported for this compound? COC(=O)C(CC#Cc1ccc2c(c1)[C@]1(C(=O)N2)[C@H](c2ccccc2OCCO)N2[C@H](c3ccccc3)[C@H](c3ccccc3)OC(=O)[C@H]2[C@@H]1C(=O)N1CCCCCCC1)C(=O)OC
result: 3.89

query: Reported composite z-score, compound COc1ccc([Si](C)(C)[C@@H]2[C@@H](CC(=O)N3CCC[C@H]3CO)O[C@]3(C(=O)N(Cc4ccc(N5CCC5=O)cc4)c4ccccc43)[C@H]2C)cc1 : ____
result: 0.428

query: # query: composite z-score of entry CN(C)CCCC[C@@H]1NC(=O)[C@@H]2C[C@H](C(=O)NCCCCCNC(=O)CS)[C@H](c3cccc(OCCO)c3)N2C1=O
result: 0.4

query: May I ask what composite z-score has been recorded for COc1ccc([Si](C)(C)[C@H]2[C@H](CC(=O)N(CCO)Cc3ccccc3)O[C@@]3(C(=O)N(Cc4cccc(N5C(=O)COc6ccccc65)c4)c4ccccc43)[C@@H]2C)cc1 ?
result: 1.57

query: # lookup: composite z-score of COCCOC(=O)N1C(=O)[C@@]2(c3cc(C#CC4(O)CCCCCC4)ccc31)[C@H](C(=O)NC[C@H](O)c1ccccc1)[C@H]1C(=O)O[C@H](c3ccccc3)[C@H](c3ccccc3)N1[C@@H]2c1ccccc1OCCO
result: 1.45

query: Which composite z-score value belongs to O=C1O[C@H](c2ccccc2)[C@H](c2ccccc2)N2[C@H]1[C@@H](C(=O)Nc1nc3ccccc3s1)[C@]1(C(=O)Nc3ccc(C#CCCO)cc31)[C@H]2c1ccccc1OCCO ?
result: 1.97

query: Give the measured composite z-score of CCOC(=O)C[C@H]1[C@H](OC(=O)c2ccc(C(=O)c3ccccc3)cc2)[C@@H](NC(=O)Cc2ccc(OC)cc2)c2cc(OCCCO)ccc2N1C(=O)Cc1ccc(OC)cc1 .
result: 0.978

query: Report composite z-score for CCCNC(=O)[C@@]1(Sc2ccc(C)cc2)CC(=O)N(Cc2cc(C(F)(F)F)cc(C(F)(F)F)c2)[C@@H]1c1ccc(CO)cc1I please.
result: 0.521
